B1: RHOBTB2 (parent)
chain: NQEITKAFHVRRTNRVKECLAKGT

Variants of: B1
Assay: protein stability index of a GFP-peptide fusion (GPS, HEK-293T) (PSI 1-6); higher = more stable;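 note: lentivirally expressed fusions sorted by FACS into six bins by GFP to DsRed ratio, PSI derived from sequencing read proportions per bin multiplied by bin number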
Details: c terminus: a fixed tail appended
I'd be grateful if you could share measured protein stability index for these entries.
API doc: respond with a numeric literal and nothing else, no unit.

Quick one: protein stability index of `E3W` ?
3.8

Quick one: protein stability index of `C19P` ?
3.11

Quick one: protein stability index of `K22T` ?
3.74

Quick one: protein stability index of `R15I` ?
3.12

Quick one: protein stability index of `T13W` ?
2.02

Quick one: protein stability index of `A7K` ?
3.51

Quick one: protein stability index of `V16P` ?
4.09

Quick one: protein stability index of `V16A` ?
2.78

Quick one: protein stability index of `V10I` ?
3.25

Quick one: protein stability index of `N1C` ?
2.25

Quick one: protein stability index of `E3M` ?
2.87

Quick one: protein stability index of `L20G` ?
2.97

Quick one: protein stability index of `T24C` ?
2.19

Quick one: protein stability index of `N1V` ?
3.07

Quick one: protein stability index of `G23C` ?
2.67

Quick one: protein stability index of `K22D` ?
3.64

Quick one: protein stability index of `G23W` ?
2.61

Quick one: protein stability index of `I4F` ?
3.46

Quick one: protein stability index of `R15W` ?
2.58

Quick one: protein stability index of `A7L` ?
2.85

Quick one: protein stability index of `H9C` ?
2.65

Quick one: protein stability index of `N14P` ?
3.38

Reference source for all entries: the supplement of paper PMC10567573
